# Protocol description: NCI Yeast Anticancer Drug Screen. Data for the sgs1 strain (AID 173);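 further: 0% = growth of vehicle-only control cultures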
# Assay context: S. cerevisiae sgs1 mutant, at 100.0 µM, active compounds read high
About 79,000 compounds went through this panel and 15% of them were active in at least one assay; those are over-represented in the sample as a whole.
Each entry below carries its reported growth inhibition.
# number only, unit % dropped from output

Molecule	growth inhibition (%)
C=C[C@H]1CN2CC[C@H]1C[C@@H]2[C@@H](O)c1ccnc2ccccc12	-6

## Input State its growth inhibition: C[C@]12CCc3nonc3C1CC[C@@H]1C2CC[C@]2(C)C(=O)CCC12 (stereo partly specified)
## Output 78

## Input State its growth inhibition: "c1ccc(N=c2nc(N3CCOCC3)ss2)cc1"
## Output 99

## Input State its growth inhibition: "Cc1c2ccccc2cc2ccccc12"
## Output 99

## Input State its growth inhibition: CCC1(O)C(=O)OCc2c1cc1n(c2=O)Cc2c-1nc1ccccc1c2OC (stereo unspecified)
## Output 8

## Input State its growth inhibition: O=C(O)C1C2CCC(C2)C1c1ccccc1 (stereo unspecified)
## Output 66

## Input State its growth inhibition: OC1CCCC2CCC[N-]C12.OC1CCCC2CCC[N-]C12.[O]=[V][OH] (stereo unspecified)
## Output 94

## Input State its growth inhibition: "CCc1cccc(C(C)C)c1NC1=C([n+]2ccc(C)cc2)C(=O)c2ccccc2C1=O"
## Output 18

## Input State its growth inhibition: "O=[N+]([O-])c1cc(S(=O)(=O)F)ccc1Cl"
## Output 98

## Input State its growth inhibition: "c1ccc2cc3n[se]nc3cc2c1"
## Output 91

## Input State its growth inhibition: CC1CCC2(NC1)OC1CC3C4CCC5CC(OC6OC(CO)C(OC7OC(CO)C(O)C(OC8OCC(O)C(O)C8O)C7OC7OC(CO)C(O)C(O)C7O)C(O)C6O)CCC5(C)C4CCC3(C)C1C2C (stereo unspecified)
## Output 61

## Input State its growth inhibition: "CC[C@@]1(O)C(=O)OCc2c1cc1n(c2=O)Cc2cc3c(NC(=O)CN)cccc3nc2-1"
## Output 7

## Input State its growth inhibition: CC12CCC(C1)C(C)(C)C2OC(=O)c1ccccc1N (stereo unspecified)
## Output 36

## Input State its growth inhibition: "O=C(O)CCCOc1cc(Cl)c(Cl)cc1Cl"
## Output 76

## Input State its growth inhibition: "O=C(/C=C(\c1ccccc1)N1CC1)c1ccccc1"
## Output 97

## Input State its growth inhibition: "C/C(=N\O)c1ccc2ccc3ccccc3c2c1"
## Output 95
